Record form. Attribute: Ki. Fill in for each entry.
test.system: CYP3A4 (Homo sapiens (Human), UniProt P08684)
Sequence (P08684 whole entry): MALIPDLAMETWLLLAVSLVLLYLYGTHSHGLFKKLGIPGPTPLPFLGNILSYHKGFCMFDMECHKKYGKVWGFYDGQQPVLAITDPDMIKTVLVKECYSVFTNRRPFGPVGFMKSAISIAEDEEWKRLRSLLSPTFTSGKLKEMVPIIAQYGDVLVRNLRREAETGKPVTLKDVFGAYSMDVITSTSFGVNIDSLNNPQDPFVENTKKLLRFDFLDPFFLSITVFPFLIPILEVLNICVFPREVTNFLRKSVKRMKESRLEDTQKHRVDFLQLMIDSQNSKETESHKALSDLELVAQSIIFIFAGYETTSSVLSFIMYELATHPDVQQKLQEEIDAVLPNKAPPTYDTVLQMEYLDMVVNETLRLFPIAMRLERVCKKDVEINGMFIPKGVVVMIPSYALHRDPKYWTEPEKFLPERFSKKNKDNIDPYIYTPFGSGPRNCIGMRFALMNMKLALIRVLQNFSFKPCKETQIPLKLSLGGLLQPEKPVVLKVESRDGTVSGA
test.details: Time-dependent inhibition of CYP3A4;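 further: Two-step in vitro assay, kobs derived from residual CYP3A4 activity versus preincubation time per concentration, then kinact and KI by nonlinear fit of kobs against concentration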
Starred links: 1 amine or outer side, 2 acyl side, 3 side chain; linkers in the order of their positions; H or OH if unused. Non-standard residues stand in square brackets, D forms with d. Residues, ends and D or L forms follow the SMILES beside them. X12 = C[C@@H](CN1CCN(C2CCC2)CC1)[C@@H](C(=O)[*:2])N(C)[*:1]; X18 = C[C@H](CCC(C)(C)O)[C@@H](C(=O)[*:2])N(C)[*:1]; MeBmt = C/C=C/C[C@@H](C)[C@@H](O)[C@H](NC)C(=O)O; NMeL = CN[C@@H](CC(C)C)C(=O)O; NMeV = CN[C@H](C(=O)O)C(C)C; dNMeA = CN[C@H](C)C(=O)O; Abu = CC[C@H](N)C(=O)O

C/C=C/C[C@@H](C)[C@@H](O)[C@H]1C(=O)N[C@@H](CC)C(=O)N(C)[C@H](C)C(=O)N(C)[C@@H]([C@H](C)CCC(C)(C)O)C(=O)N[C@@H](C(C)C)C(=O)N(C)[C@@H](CC(C)C)C(=O)N[C@@H](C)C(=O)N[C@H](C)C(=O)N(C)[C@@H](CC(C)C)C(=O)N(C)[C@@H](CC(C)C)C(=O)N(C)[C@@H](C(C)C)C(=O)N1C [Compound 2.12] (cyclo(A[dA][NMeL][NMeL][NMeV][MeBmt][Abu][dNMeA][X18]V[NMeL])) ... > 50 µM
C/C=C/C[C@@H](C)[C@@H](O)[C@H]1C(=O)N[C@@H](CC)C(=O)N(C)[C@H](C)C(=O)N(C)[C@@H]([C@H](C)CCN2CCOCC2)C(=O)N[C@@H](C(C)C)C(=O)N(C)[C@@H](CC(C)C)C(=O)N[C@@H](C)C(=O)N[C@H](C)C(=O)N(C)[C@@H](CC(C)C)C(=O)N(C)[C@@H](CC(C)C)C(=O)N(C)[C@@H](C(C)C)C(=O)N1C (stereo in doubt) ... > 50 µM

Here's the next entry for you.
Problem: Looking for the measured Ki of C/C=C/C[C@@H](C)[C@@H](O)[C@H]1C(=O)N[C@@H](CC)C(=O)N(C)[C@H](C)C(=O)N(C)[C@@H]([C@@H](C)CN2CCN(C3CCC3)CC2)C(=O)N[C@@H](C(C)C)C(=O)N(C)[C@@H](CC(C)C)C(=O)N[C@@H](C)C(=O)N[C@H](C)C(=O)N(C)[C@@H](CC(C)C)C(=O)N(C)[C@@H](CC(C)C)C(=O)N(C)[C@@H](C(C)C)C(=O)N1C [Compound 2.17.3] (cyclo(A[dA][NMeL][NMeL][NMeV][MeBmt][Abu][dNMeA][X12]V[NMeL])) , can you help?
Result: > 50 µM

###

test.system: UniProtKB P30405
Sequence (P30405 30-207): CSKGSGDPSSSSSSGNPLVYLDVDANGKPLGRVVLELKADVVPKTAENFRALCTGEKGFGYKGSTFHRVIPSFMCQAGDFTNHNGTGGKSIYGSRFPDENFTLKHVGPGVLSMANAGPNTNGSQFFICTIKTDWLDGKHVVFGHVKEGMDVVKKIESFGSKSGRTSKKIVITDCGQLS
test.details: Inhibitor binding to cyclophilin proteins by SPR, CypF
protocol.conditions: 1:1 binding model
Experimental: Method 1: Measuring Inhibitor Binding to Cyclophilin Proteins Binding of inhibitors to expressed cyclophilins was determined using surface plasmon resonance (SPR) experiments. Briefly, avi-tagged cyclophilin proteins with mono-biotinylation were immobilized onto a Biotin CAPture chip (GE Healthcare, cat. #28920234). […] Data was analyzed using Biacore T200 Evaluation Software Version 1.0 and a 1:1 binding model was applied to fit the data to obtain kon, koff, and KD.
Starred links: 1 amine or outer side, 2 acyl side, 3 side chain; linkers in the order of their positions; H or OH if unused. Non-standard residues stand in square brackets, D forms with d. Residues, ends and D or L forms follow the SMILES beside them. X19 = COCCN1CCN(C[C@H](C)[C@@H](C(=O)[*:2])N(C)[*:1])CC1; MeBmt = C/C=C/C[C@@H](C)[C@@H](O)[C@H](NC)C(=O)O; X77 = COC[C@H](C)[C@@H](C(=O)[*:2])N(C)[*:1]; NMeL = CN[C@@H](CC(C)C)C(=O)O; NMeV = CN[C@H](C(=O)O)C(C)C; dNMeA = CN[C@H](C)C(=O)O; Abu = CC[C@H](N)C(=O)O
Exercise: state measured CypF Kd for each of the molecules provided.
One number for each entry, in nM.

// known answers, use as guide
C/C=C/C[C@@H](C)[C@@H](O)[C@H]1C(=O)N[C@@H](CC)C(=O)N(C)[C@H](C)C(=O)N(C)[C@@H]([C@@H](C)CN2CCN(CCOC)CC2)C(=O)N[C@@H](C(C)C)C(=O)N(C)[C@@H](CC(C)C)C(=O)N[C@@H](C)C(=O)N[C@H](C)C(=O)N(C)[C@@H](CC(C)C)C(=O)N(C)[C@@H](CC(C)C)C(=O)N(C)[C@@H](C(C)C)C(=O)N1C [Compound 2.17.4] (cyclo(A[dA][NMeL][NMeL][NMeV][MeBmt][Abu][dNMeA][X19]V[NMeL])) ... 0.3
C/C=C/C[C@@H](C)[C@@H](O)[C@H]1C(=O)N[C@@H](CC)C(=O)N(C)[C@H](C)C(=O)N(C)[C@@H]([C@H](C)COC)C(=O)N[C@@H](C(C)C)C(=O)N(C)[C@@H](CC(C)C)C(=O)N[C@@H](C)C(=O)N[C@H](C)C(=O)N(C)[C@@H](CC(C)C)C(=O)N(C)[C@@H](CC(C)C)C(=O)N(C)[C@@H](C(C)C)C(=O)N1C [Compound 2.1] ... 1.3
C/C=C/C[C@@H](C)[C@@H](O)[C@H]1C(=O)N[C@@H](CC)C(=O)N(C)[C@H](C)C(=O)N(C)[C@@H]([C@H](C)COCCOC(=O)N2CCN(C)CC2)C(=O)N[C@@H](C(C)C)C(=O)N(C)[C@@H](CC(C)C)C(=O)N[C@@H](C)C(=O)N[C@H](C)C(=O)N(C)[C@@H](CC(C)C)C(=O)N(C)[C@@H](CC(C)C)C(=O)N(C)[C@@H](C(C)C)C(=O)N1C (stereo in doubt) [Compound 2.9] ... 0.4
C/C=C/C[C@@H](C)[C@@H](O)[C@H]1C(=O)N[C@@H](CC)C(=O)N(C)[C@H](C)C(=O)N(C)[C@@H]([C@H](C)CO[C@H]2CCOC2)C(=O)N[C@@H](C(C)C)C(=O)N(C)[C@@H](CC(C)C)C(=O)N[C@@H](C)C(=O)N[C@H](C)C(=O)N(C)[C@@H](CC(C)C)C(=O)N(C)[C@@H](CC(C)C)C(=O)N(C)[C@@H](C(C)C)C(=O)N1C (stereo in doubt) [Compound 2.16] ... 0.4

Problem: Request - read-out CypF Kd | tested on UniProtKB P30405 | molecule C/C=C/C[C@@H](C)[C@@H](O)[C@H]1C(=O)N[C@@H](CC)C(=O)N(C)[C@H](C)C(=O)N(C)[C@@H]([C@@H](C)COC)C(=O)N[C@@H](C(C)C)C(=O)N(C)[C@@H](CC(C)C)C(=O)N[C@@H](C)C(=O)N[C@H](C)C(=O)N(C)[C@@H](CC(C)C)C(=O)N(C)[C@@H](CC(C)C)C(=O)N(C)[C@@H](C(C)C)C(=O)N1C [Compound 2.2] (cyclo(A[dA][NMeL][NMeL][NMeV][MeBmt][Abu][dNMeA][X77]V[NMeL]))
Result: 0.8

###

test.system: UniProt P08684
test.details: Time-dependent inhibition of CYP3A4
protocol.conditions: probe substrate midazolam
Starred links: 1 amine or outer side, 2 acyl side, 3 side chain; linkers in the order of their positions; H or OH if unused. Non-standard residues stand in square brackets, D forms with d. Residues, ends and D or L forms follow the SMILES beside them. X25 = CCN1CCO[C@H](COC[C@@H](C)[C@@H](C(=O)[*:2])N(C)[*:1])C1; X58 = C[C@H](COCCN1CCN(C2CCC2)CC1)[C@@H](C(=O)[*:2])N(C)[*:1]; X17 = C[C@H](COCC(C)(C)O)[C@@H](C(=O)[*:2])N(C)[*:1]; MeBmt = C/C=C/C[C@@H](C)[C@@H](O)[C@H](NC)C(=O)O; X77 = COC[C@H](C)[C@@H](C(=O)[*:2])N(C)[*:1]; NMeL = CN[C@@H](CC(C)C)C(=O)O; NMeV = CN[C@H](C(=O)O)C(C)C; dNMeA = CN[C@H](C)C(=O)O; Abu = CC[C@H](N)C(=O)O
observed.property: NIM TDI kinact/Ki (M⁻¹ s⁻¹)
Give bare numbers, in M⁻¹ s⁻¹.

Consider the worked cases shown below.
C/C=C/C[C@@H](C)[C@@H](O)[C@H]1C(=O)N[C@@H](CC)C(=O)N(C)[C@H](C)C(=O)N(C)[C@@H]([C@H](C)COC[C@@H]2CN(CC)CCO2)C(=O)N[C@@H](C(C)C)C(=O)N(C)[C@@H](CC(C)C)C(=O)N[C@@H](C)C(=O)N[C@H](C)C(=O)N(C)[C@@H](CC(C)C)C(=O)N(C)[C@@H](CC(C)C)C(=O)N(C)[C@@H](C(C)C)C(=O)N1C [Compound 2.20.1] (cyclo(A[dA][NMeL][NMeL][NMeV][MeBmt][Abu][dNMeA][X25]V[NMeL])) ... 6.7
C/C=C/C[C@@H](C)[C@@H](O)[C@H]1C(=O)N[C@@H](CC)C(=O)N(C)[C@H](C)C(=O)N(C)[C@@H]([C@H](C)COCC(C)(C)O)C(=O)N[C@@H](C(C)C)C(=O)N(C)[C@@H](CC(C)C)C(=O)N[C@@H](C)C(=O)N[C@H](C)C(=O)N(C)[C@@H](CC(C)C)C(=O)N(C)[C@@H](CC(C)C)C(=O)N(C)[C@@H](C(C)C)C(=O)N1C [Compound 2.7] (cyclo(A[dA][NMeL][NMeL][NMeV][MeBmt][Abu][dNMeA][X17]V[NMeL])) ... 25
C/C=C/C[C@@H](C)[C@@H](O)[C@H]1C(=O)N[C@@H](CC)C(=O)N(C)[C@H](C)C(=O)N(C)[C@@H]([C@@H](C)COC)C(=O)N[C@@H](C(C)C)C(=O)N(C)[C@@H](CC(C)C)C(=O)N[C@@H](C)C(=O)N[C@H](C)C(=O)N(C)[C@@H](CC(C)C)C(=O)N(C)[C@@H](CC(C)C)C(=O)N(C)[C@@H](C(C)C)C(=O)N1C [Compound 2.2] (cyclo(A[dA][NMeL][NMeL][NMeV][MeBmt][Abu][dNMeA][X77]V[NMeL])) ... 5

Consider the additional compound presented here.
Problem: Please give the measured NIM TDI kinact/Ki for this compound: C/C=C/C[C@@H](C)[C@@H](O)[C@H]1C(=O)N[C@@H](CC)C(=O)N(C)[C@H](C)C(=O)N(C)[C@@H]([C@H](C)COCCN2CCN(C3CCC3)CC2)C(=O)N[C@@H](C(C)C)C(=O)N(C)[C@@H](CC(C)C)C(=O)N[C@@H](C)C(=O)N[C@H](C)C(=O)N(C)[C@@H](CC(C)C)C(=O)N(C)[C@@H](CC(C)C)C(=O)N(C)[C@@H](C(C)C)C(=O)N1C [Compound 2.8.8] (cyclo(A[dA][NMeL][NMeL][NMeV][MeBmt][Abu][dNMeA][X58]V[NMeL]))
Result: 12

Reference source for all entries: patent US9566312B2
